- System: human cathepsin K (UniProt P43236)
- Test Name: Cathepsin K Assay (hrbCat K)
- Format: biochemical
- Condition Summary: Z-Leu-Arg-AMC substrate, pH 5.5, 15 min preincubation; read-out: hrbCat K (IP (nM))
- Procedure: Cathepsin K Assay (hrbCat K) Then 0.5 μL of DMSO from each dilution were added to 18.75 μL of assay buffer (MES, 50 mM (pH 5.5); EDTA, 2.5 mM; DTT, 2.5 mM and 10% DMSO) containing human cathepsin K (0.4 nM) in assay buffer solution. The assay solutions were mixed for 5-10 seconds on a shaker plate and incubated for 15 minutes at room temperature. […] Percent of inhibition were calculated by fitting experimental values to standard mathematical model for dose response curve.
Each record is given met if its reported IC50 is strictly below 3 nM. Records at or above 3 nM are given not met.

Record excerpt, results attached:
N#CC1(NC(=O)[C@@H]2CC3CC3C[C@H]2c2nc(-c3ccc(F)cn3)sc2-c2ccc(N3CCS(=O)(=O)CC3)cc2)CC1 (single isomer, unassigned) [Example 100]: met
N#CC1(NC(=O)[C@@H]2CCCC[C@H]2c2nc(NCC(F)(F)F)sc2-c2ccc(N3CCS(=O)(=O)CC3)cc2)CC1: not met
N#CC1(NC(=O)[C@@H]2CCCC[C@H]2c2nc(-c3cncc(F)c3)sc2-c2ccc(N3CCS(=O)(=O)CC3)cc2)CC1: met

Identify whether the compound `CC(C)(C)c1nc([C@@H]2CC[C@H](F)C[C@H]2C(=O)NC2(C#N)CC2)c(-c2ccc(N3CCS(=O)(=O)CC3)cc2)o1` records IC50 below 3 nM.
not met

Identify whether the compound CC(Oc1ncccc1-c1nc([C@@H]2CCCC[C@H]2C(=O)NC2(C#N)CC2)c(-c2ccc(N3CCS(=O)(=O)CC3)cc2)s1)C(F)(F)F (mixture of isomers) records IC50 below 3 nM.
met

Identify whether the compound `N#CC1(NC(=O)[C@@H]2CCCC[C@H]2c2nc(-c3ncccn3)sc2-c2ccc(N3CCS(=O)(=O)CC3)cc2)CC1` records IC50 below 3 nM.
not met

----------
- System: human cathepsin F (Homo sapiens, UniProt Q9UBX1)
- Sequence (Q9UBX1 271-484): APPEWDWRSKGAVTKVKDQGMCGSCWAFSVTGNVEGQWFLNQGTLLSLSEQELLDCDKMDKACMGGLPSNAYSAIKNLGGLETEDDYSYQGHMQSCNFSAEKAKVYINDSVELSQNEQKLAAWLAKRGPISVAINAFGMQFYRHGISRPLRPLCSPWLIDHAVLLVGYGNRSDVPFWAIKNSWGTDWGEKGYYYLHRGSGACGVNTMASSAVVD
- Test Name: Cathepsin F assay (hCat F)
- Format: biochemical
- Condition Summary: Z-Phe-Arg-AMC substrate, pH 5.5, 15 min preincubation; read-out: hCat F (IP (nM))
- Method: Cathepsin F assay (hCat F) Serial dilutions (1/3) from 500 μM down to 0.025 μM of test compounds were prepared in dimethyl sulfoxide (DMSO). Then 0.5 μL of DMSO from each dilution were added to 18.75 μL of assay buffer (MES, 50 mM (pH 5.5); EDTA, 2.5 mM; DTT, 2.5 mM and 10% DMSO) containing human cathepsin F (10 nM) in assay buffer solution. […] Percent of inhibition were calculated by fitting experimental values to standard mathematical model for dose response curve.
Assay Metric: IC50 (nM)
API: value field is a number in nM; no unit string.

Cc1nc([C@@H]2CC[C@H](F)C[C@H]2C(=O)N[C@H](C#N)C(C)C)c(-c2ccc(N3CCS(=O)(=O)CC3)cc2)s1: 9900

IC50 for `N#CC1(NC(=O)[C@@H]2CCCC[C@H]2c2nc(-c3ccc(F)cc3)sc2-c2ccc(C(=O)N3CCNC(=O)C3)cc2)CC1` ?
667

IC50 for `N#CC1(NC(=O)[C@@H]2C[C@@H](F)CC[C@H]2c2nc(CF)sc2-c2ccc(N3CCS(=O)(=O)CC3)cc2)CC1` ?
3170
